Observed IC50, system UniProt Q9NZ08.

Example entries begin here.
C[C@@H](Oc1cc(Cl)c(C#N)cc1NS(=O)(=O)c1cc(C(=O)O)ccc1C1CC1)C1CCC1 | < 1 nM
N#Cc1cc(NS(=O)(=O)c2cc(C(=O)O)ccc2C2CC2)c(OC2CCCC2)cc1F | < 1 nM
C#CC1CCCC1Oc1cc(Cl)c(C#N)cc1NS(=O)(=O)c1cc(C(=O)O)ccc1C1CC1 (racemic) [Example 84] | < 1 nM
N#Cc1cc(NS(=O)(=O)c2cc(C(=O)O)c(F)cc2C2CC2)c(OC2CC(F)(F)C2)cc1Cl | < 1 nM
CC1(C)CCC1Oc1cc(Cl)c(C#N)cc1NS(=O)(=O)c1cc(C(=O)O)ccc1C1CC1 (single isomer, unassigned) [Example 94] | < 1 nM

Query: State the measured IC50 (UniProt Q9NZ08) of N#Cc1cc(NS(=O)(=O)c2cc(C(=O)O)ccc2C2CC2)c(OC2CCC(C#N)C2)cc1Cl (racemic) [Example 72]
Result: < 1 nM

Query: State the measured IC50 (UniProt Q9NZ08) of `N#Cc1cc(NS(=O)(=O)c2cc(C(=O)O)ccc2C2CC2)c(OCC2(C#N)CCC2)cc1Cl`
Result: < 1 nM

Query: State the measured IC50 (UniProt Q9NZ08) of `N#Cc1cc(NS(=O)(=O)c2cc(C(=O)O)ccc2C2CC2)c(OC2CC3(COC3)C2)cc1Cl`
Result: > 5 nM

Query: State the measured IC50 (UniProt Q9NZ08) of `N#Cc1cc(NS(=O)(=O)c2cc(C(=O)O)ccc2C2CC2)c(OCC2COC2)cc1Cl`
Result: 1 to 5 nM

Query: State the measured IC50 (UniProt Q9NZ08) of `CC1(C)CC(COc2cc(Cl)c(C#N)cc2NS(=O)(=O)c2cc(C(=O)O)ccc2C2CC2)C1`
Result: 1 to 5 nM

Query: State the measured IC50 (UniProt Q9NZ08) of `COc1ccc(C(=O)O)cc1S(=O)(=O)Nc1cc(C(F)(F)F)ccc1OC1CCCC1`
Result: > 5 nM

###

molecular target: UniProt:Q9NZ08
endpoint-name: IC50

CC1CCCC1Oc1cc(Cl)c(C#N)cc1NS(=O)(=O)c1cc(C(=O)O)ccc1C1CC1 (racemic) [Example 90] | < 1 nM
N#Cc1cc(NS(=O)(=O)c2cc(C(=O)O)ccc2C2CC2)c(OC2CC3(CCC3)C2)cc1Cl | 1 to 5 nM
COC1CCC1Oc1cc(Cl)c(C#N)cc1NS(=O)(=O)c1cc(C(=O)O)ccc1C1CC1 (single isomer, unassigned) | < 1 nM

Query: State the measured IC50 (UniProt:Q9NZ08) of N#Cc1cc(NS(=O)(=O)c2cc(C(=O)O)ccc2C2CC2)c(OC2CCC2C2CC2)cc1Cl (single isomer, unassigned) [Example 132]
Result: 1 to 5 nM

Query: State the measured IC50 (UniProt:Q9NZ08) of CC1CC(COc2cc(Cl)c(C#N)cc2NS(=O)(=O)c2cc(C(=O)O)ccc2C2CC2)C1 (mixture of isomers)
Result: < 1 nM

Query: State the measured IC50 (UniProt:Q9NZ08) of C#CC1CCCC1Oc1cc(Cl)c(C#N)cc1NS(=O)(=O)c1cc(C(=O)O)ccc1C1CC1 (single isomer, unassigned) [Example 116]
Result: > 5 nM

Query: State the measured IC50 (UniProt:Q9NZ08) of N#Cc1cc(NS(=O)(=O)c2cc(C(=O)O)ccc2C2CC2)c(OC2CCC23CC3)cc1Cl (stereo not shown) [Example 56]
Result: < 1 nM

###

molecular target: ERAP1 (Homo sapiens, UniProt Q9NZ08); construct: Purified ERAP1(37-941)-10His (ERAP1); assay: ERAP1 mediated hydrolysis of an amide substrate measured in a biochemical system (10-mer inhibition assay); details: purified ERAP1(37-941)-10His; 10-mer substrate; 23° C. for 1 h; excitation 279 nm, emission 355 nm; read-out: IC50 vs Decapeptide WRVYEKC(Dnp)ALK-acid (where Dnp is Dinitrophenyl maleimide) (10-mer)
Sequence (Q9NZ08 37-941): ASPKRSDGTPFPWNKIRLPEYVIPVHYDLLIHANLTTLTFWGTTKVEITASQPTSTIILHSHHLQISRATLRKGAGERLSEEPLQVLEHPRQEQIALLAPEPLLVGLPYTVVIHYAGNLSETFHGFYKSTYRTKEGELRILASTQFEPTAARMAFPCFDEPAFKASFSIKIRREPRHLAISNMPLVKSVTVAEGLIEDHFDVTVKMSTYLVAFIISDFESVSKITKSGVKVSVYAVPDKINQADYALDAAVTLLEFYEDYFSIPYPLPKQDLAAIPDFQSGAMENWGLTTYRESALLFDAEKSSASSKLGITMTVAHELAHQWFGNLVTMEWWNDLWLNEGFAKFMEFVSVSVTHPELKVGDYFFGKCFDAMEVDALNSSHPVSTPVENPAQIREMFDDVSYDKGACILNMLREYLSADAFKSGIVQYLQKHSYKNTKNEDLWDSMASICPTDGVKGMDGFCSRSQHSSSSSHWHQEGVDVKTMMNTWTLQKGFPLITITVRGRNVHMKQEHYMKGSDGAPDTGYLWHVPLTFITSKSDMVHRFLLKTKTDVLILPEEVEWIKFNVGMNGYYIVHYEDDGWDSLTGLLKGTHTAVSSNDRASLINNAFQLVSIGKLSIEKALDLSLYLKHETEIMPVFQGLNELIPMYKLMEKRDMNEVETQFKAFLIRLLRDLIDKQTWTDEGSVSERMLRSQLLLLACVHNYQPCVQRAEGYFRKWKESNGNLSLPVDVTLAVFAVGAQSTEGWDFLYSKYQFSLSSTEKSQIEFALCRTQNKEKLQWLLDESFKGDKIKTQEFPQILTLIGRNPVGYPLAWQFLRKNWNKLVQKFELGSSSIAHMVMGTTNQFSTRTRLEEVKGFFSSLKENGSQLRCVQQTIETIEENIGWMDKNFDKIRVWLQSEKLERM
endpoint-name: IC50

N#Cc1cc(NS(=O)(=O)c2cc(C(=O)O)ccc2C2CC2)c(OC2CCC(O)C2)cc1Cl (racemic) [Example 110] | < 1 nM
N#Cc1cc(NS(=O)(=O)c2cc(C(=O)O)ccc2C2CC2)c(O[C@H]2C[C@H](O)C2)cc1Cl | < 1 nM
COC1CCCC1Oc1cc(Cl)c(C#N)cc1NS(=O)(=O)c1cc(C(=O)O)ccc1C1CC1 (racemic) [Example 102] | < 1 nM
Cc1oncc1-c1cc(NS(=O)(=O)c2cc(C(=O)O)ccc2C2CC2)c(OC2CCCC2)cc1Cl | < 1 nM
C#CC1CCCC1Oc1cc(Cl)c(C#N)cc1NS(=O)(=O)c1cc(C(=O)O)ccc1C1CC1 (single isomer, unassigned) [Example 127] | > 5 nM
N#Cc1cc(F)c(OC2CCCC2)c(NS(=O)(=O)c2cc(C(=O)O)ccc2C2CC2)c1 | > 5 nM

Now, please, on to the next compound.
Query: Using the record for C#CC1CCCC1Oc1cc(Cl)c(C#N)cc1NS(=O)(=O)c1cc(C(=O)O)ccc1C1CC1 (single isomer, unassigned) [Example 117] , state its measured IC50.
Result: < 1 nM

Source: patent US12692223B2
